Data origin, for the record: PubChem BioAssay AID1918948

Test system: K-562 leukemia growth, % test/control
Experiment: Anticancer human tumor K-562 cell line growth inhibition;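 note: spheroids exposed to compounds for 7 days; 100% = DMSO vehicle wells and lower values mean fewer viable cells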
Settings: second compound 0.316 µM; first compound 0.003 µM; active compounds read low; spheroids with HUVEC and MSC
MEASURE: viability, T/C (%)
Hi! Could you send only the number? It should be in %, unit omitted.

INPUT: Answer with reported viability, T/C of CCc1c2c(nc3ccc(O)cc13)-c1cc3c(c(=O)n1C2)COC(=O)[C@]3(O)CC + NC1CC1c1ccc(-c2cccc(O)c2)cc1
OUTPUT: 3.51

INPUT: Note viability, T/C for the compound shown: Nc1ccn(C2OC(CO)C(O)C2(F)F)c(=O)n1 (stereo unspecified) + NC1CC1c1ccc(-c2cccc(O)c2)cc1
OUTPUT: 102

INPUT: Return reported viability, T/C. Input compound: Nc1ncn(C2CC(O)C(CO)S2)c(=O)n1 (stereo unspecified) + NC1CCC(NC2CC2c2ccccc2)CC1
OUTPUT: 108

INPUT: Return the recorded viability, T/C value; entry: Nc1ccn(C2OC(CO)C(O)C2(F)F)c(=O)n1 (stereo unspecified) + NC1CCC(NC2CC2c2ccccc2)CC1
OUTPUT: 7.37

INPUT: Return viability, T/C (reported value) for this compound: CCc1c2c(nc3ccc(O)cc13)-c1cc3c(c(=O)n1C2)COC(=O)[C@]3(O)CC + NC1CCC(NC2CC2c2ccccc2)CC1
OUTPUT: 3.06

INPUT: Tell us which viability, T/C value is on record for Nc1ncn(C2CC(O)C(CO)S2)c(=O)n1 (stereo unspecified) + NC1CC1c1ccc(-c2cccc(O)c2)cc1
OUTPUT: 104
